test system: 616215-338-R-J1-PDC complex spheroid growth, % test/control; assay: Anticancer human tumor 616215-338-R-J1-PDC patient-derived colon adenocarcinoma cell line growth inhibition [Asc]; conditions: second compound 1 µM; first compound 0.00316 µM; active compounds read low;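 note: spheroids exposed to agents for seven days before readout; 100% = DMSO vehicle control viability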
Answer each item with its documented viability, T/C.
Numbers only, in %.

COMPOUND	viability, T/C, %
Cn1ncnc1[C@H]1c2n[nH]c(=O)c3cc(F)cc(c23)N[C@@H]1c1ccc(F)cc1 + CNC(C)C(=O)NC1CN(S(=O)(=O)c2cccc(S(=O)(=O)N3CCC4CCC(C(=O)NC(c5ccccc5)c5ccccc5)N4C(=O)C(NC(=O)C(C)NC)C3)c2)CCC2CCC(C(=O)NC(c3ccccc3)c3ccccc3)N2C1=O	97.2

List reported viability, T/C for each of these compounds:
1. COc1c(OCCCN2CCOCC2)ccc2c3n(c(=NC(=O)c4cnc(N)nc4)nc12)CCN3 + Cc1c(S(C)(=O)=O)c(-c2cc(F)cc(N3CCN(c4ccc(NS(=O)(=O)c5ccc(NC(CCN6CCC(C(=O)OCCCP(=O)(O)O)CC6)CSc6ccccc6)c(S(=O)(=O)C(F)(F)F)c5)cc4)CC3)c2)c(-c2ccc(Cl)cc2)n1C(C)C
2. O=C(c1ccc(F)c(F)c1Nc1ccc(I)cc1F)N1CC(O)([C@@H]2CCCCN2)C1 + CNC(C)C(=O)NC1CN(S(=O)(=O)c2cccc(S(=O)(=O)N3CCC4CCC(C(=O)NC(c5ccccc5)c5ccccc5)N4C(=O)C(NC(=O)C(C)NC)C3)c2)CCC2CCC(C(=O)NC(c3ccccc3)c3ccccc3)N2C1=O

Output:
[71.7, 102]
